# Assay summary: A CellTox Green Cytotoxicity Assay to monitor cytotoxicity in HepG2 cells - 16 hour (AID 1224876); further: nearly all actives have a fitted effect of over 45% in size
# Condition parameters: CellTox Green fluorescence; series mostly up to 76.8 µM
Inconclusive results are not listed. Calls of active or inactive are those of the source. The call rests on the fitted dose curve; in most records, active means well fitted activation curve with a large enough effect in the repeat runs; inconclusive means weak or mixed curves; inactive means flat fitted curve, though single readings scatter.
In this exercise, the only acceptable responses are 1 (active), 0 (inactive)

Consider the worked cases shown below.
- Compound: "Cc1ccc(N(CC2=NCCN2)c2cccc(O)c2)cc1"
  Group label: 0
- Compound: "CC(=O)OCC1=C(C(=O)O)N2C(=O)[C@@H](NC(=O)CSc3ccncc3)[C@H]2SC1"
  Group label: 0
- Compound: "COC(OC)OC"
  Group label: 0
- Compound: "CC[C@H]1OC(=O)[C@H](C)[C@@H](O[C@H]2C[C@@](C)(OC)[C@@H](O)[C@H](C)O2)[C@H](C)[C@@H](O[C@@H]2O[C@H](C)C[C@H](N(C)C)[C@H]2O)[C@](C)(O)C[C@@H](C)CN(C)[C@H](C)[C@@H](O)[C@]1(C)O"
  Group label: 0
- Compound: "CC(=O)c1ccc[nH]1"
  Group label: 0
- Compound: "O=C1OC(=O)c2c(Br)c(Br)c(Br)c(Br)c21"
  Group label: 0
- Compound: "O=C(O)CCC(=O)OC[C@@H](NC(=O)C(Cl)Cl)[C@H](O)c1ccc([N+](=O)[O-])cc1"
  Group label: 1
- Compound: "CCN(CC)c1cccc(O)c1"
  Group label: 0

# lookup: test call for "CCCCCCCCCCCSCC(=O)O"
0

Which outcome was assigned to "CCN(CC)CC(=O)Nc1c(C)cccc1C(=O)OC" in this test?
0

Hi, do you know how "COc1cc(C(C)=O)ccc1OCCCN1CCC(c2noc3cc(F)ccc23)CC1" came out in this test?
0

Given "COc1cc(S(=O)(=O)Nc2ccccc2)c(OC)cc1N" , state the outcome it received in this test.
0

Give the logged outcome of this assay for the following compound: CC(C(=O)O)c1ccc(C(=O)c2cccs2)cc1 (stereo not given)
0

What classification did "CCNc1nc(N)nc(Cl)n1" end up with in this test?
0

Look up the recorded call for COC(=O)C1=C(C)NC(C)=C(C(=O)OC(C)(C)CN(C)CCC(c2ccccc2)c2ccccc2)C1c1cccc([N+](=O)[O-])c1 (stereo not given) in this test.
0

Test call for this compound, please: "CCN(CC)C(=O)N1CCN(C)CC1"
0

What did this assay record as the result for "CC1=CC[C@@]23C[C@@H]1C(C)(C)[C@@H]2CC[C@H]3C" ?
0

Given "CC(CO)(CO)C(=O)O" , state the outcome it received in this test.
0

Each compound tested received a call. Report the one for "CCc1ccc(C)cc1" .
0

Assay result, entry CNC1CCCN(c2c(F)cc3c(=O)c(C(=O)O)cn(C4CC4)c3c2OC)C1 (stereo not given) — outcome?
0

* * *

# Assay summary: qHTS RealTime-Glo MT Cell Viability Assay in HEK293 cells - 8 hour (AID 1224887); further: top concentration of the series differs between compounds; nearly all actives have a fitted effect of over 50% in size
# Condition parameters: RealTime-Glo luminescence; series mostly up to 76.8 µM
Inconclusive results are not listed. Activity calls are given as the source filed them. Calls come from the whole dose curve; as a rule, active = well fitted cell-killing curve with a large enough effect in the repeat runs; inconclusive = weak or mixed curves, or effect the other way; inactive = flat fitted curve, though single readings scatter.
Property label: outcome

- Structure: "O=C1NC(=O)c2cccc3cccc1c23"
  Endpoint value: "inactive"
- Structure: "COc1cc(NS(=O)(=O)c2ccc(N)cc2)nc(C)n1"
  Endpoint value: "inactive"
- Structure: "C=C(C)C(=O)OCCC(F)(F)C(F)(F)C(F)(F)C(F)(F)C(F)(F)C(F)(F)F"
  Endpoint value: "inactive"
- Structure: "CCOCCC(=O)OCC"
  Endpoint value: "inactive"

* * *

# Assay summary: A CellTox Green Cytotoxicity Assay to monitor cytotoxicity in HepG2 cells - 24 hour (AID 1224878); further: nearly all actives have a fitted effect of over 45% in size
# Condition parameters: CellTox Green fluorescence; series mostly up to 76.8 µM
Records with an inconclusive call do not appear. Active and inactive are the calls of the source. The call rests on the fitted dose curve; in most records, active means well fitted activation curve with a large enough effect in the repeat runs; inconclusive means weak or mixed curves; inactive means flat fitted curve, though single readings scatter.
Bench note: report the call from active, inactive

- Compound: "C=Cc1ccc(OC(C)=O)cc1"
  Group label: "inactive"
- Compound: "CCN(CC)CC(=O)Nc1c(C)cccc1C(=O)OC"
  Group label: "inactive"
- Compound: "CC(C)(C)C(O)/C=C/c1ccc2c(c1)OCO2 (centres undefined)"
  Group label: "inactive"
- Compound: "ClC1=C(Cl)C1(Cl)Cl"
  Group label: "inactive"

Which result was noted for this compound in the test: "O=c1[nH][nH]c(=O)c2cc([N+](=O)[O-])ccc12"
inactive

Tell me the assay call for CCOC(=O)C(C)O (centres undefined) please.
inactive

* * *

# Assay system: Nuclear receptor subfamily 1 group I member 2 (Homo sapiens) (UniProt O75469)
# Sequence (O75469 whole entry, looked up): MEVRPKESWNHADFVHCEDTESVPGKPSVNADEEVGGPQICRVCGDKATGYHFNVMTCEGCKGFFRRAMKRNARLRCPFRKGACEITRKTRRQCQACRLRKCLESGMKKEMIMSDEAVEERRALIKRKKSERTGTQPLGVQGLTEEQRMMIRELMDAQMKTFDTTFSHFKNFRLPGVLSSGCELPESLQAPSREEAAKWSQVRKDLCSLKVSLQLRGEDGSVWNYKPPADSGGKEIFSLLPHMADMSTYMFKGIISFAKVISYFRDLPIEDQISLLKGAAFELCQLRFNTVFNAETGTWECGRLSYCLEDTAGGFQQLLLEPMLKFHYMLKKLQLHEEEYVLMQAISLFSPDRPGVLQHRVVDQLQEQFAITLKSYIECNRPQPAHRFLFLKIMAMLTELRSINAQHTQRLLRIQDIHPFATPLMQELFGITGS
# Assay summary: Human pregnane X receptor (PXR) small molecule agonists, qHTS assay (AID 1346982); further: nearly all actives have a fitted effect of over 35% in size
# Condition parameters: PXR-Luc HepG2, CYP3A4 luciferase reporter, 24 h; series mostly up to 92.4 µM
Results filed as inconclusive are left out. Activity calls are given as the source filed them. The call rests on the fitted dose curve; in most records, active means well fitted activation curve with a large enough effect in the repeat runs; inconclusive means weak or mixed curves; inactive means no such curve, though single readings can be large or run the other way.
Give one outcome, nothing more. List: active, inactive

Some entries whose results are on file:
- Molecule: "CC(C)C1CCC(C(=O)N[C@H](Cc2ccccc2)C(=O)O)CC1 (stereo partly drawn)"
  Group label: "inactive"
- Molecule: "CC(C)(C)NCC(O)COc1cccc2c1C[C@H](O)[C@H](O)C2 (stereo partly drawn)"
  Group label: "inactive"
- Molecule: "CC(C)c1ccc(C#N)cc1"
  Group label: "inactive"
- Molecule: "CC1CCC(C(C)CS)CC1S (stereo not drawn)"
  Group label: "inactive"
- Molecule: "COC(=O)CC(C(C)=O)C(=O)OC (stereo not drawn)"
  Group label: "inactive"
- Molecule: "CC(C)(C(=O)c1cccnc1)c1cccnc1"
  Group label: "inactive"
- Molecule: "O=C(Oc1ccccc1)c1ccc2ccccc2c1O"
  Group label: "active"
- Molecule: "CCCCCCCCCCCCCOS(=O)(=O)O"
  Group label: "inactive"
- Molecule: "CC1=C2[C@@H]([C@H](C)CC[C@H]2/C=C(\\C)C(=O)O)[C@H](O)C1"
  Group label: "inactive"
- Molecule: "O=C1[C@@H]2[C@H]3CC[C@H](C3)[C@@H]2C(=O)N1CCCCN1CCN(c2ncccn2)CC1"
  Group label: "inactive"

Call for entry "Oc1ccc2c(c1)Cc1ccccc1-2" :
active

Kindly provide the recorded test outcome for the following molecule: "Cc1ccc(S(=O)(=O)NC(=O)NC2CCCCC2)cc1"
inactive

Please share the test call associated with "O=C1OC[C@H](Cc2cccc(O)c2)[C@H]1Cc1cccc(O)c1" .
inactive

* * *

# Assay summary: qHTS assay to identify small molecule agonists of the constitutive androstane receptor (CAR) signaling pathway - cell viability counter screen (AID 1224836); further: nearly all actives have a fitted effect of over 45% in size
# Condition parameters: HepG2-CYP2B6-hCAR viability, CellTiter-Fluor, 23 h, PK11195 added to every well; series mostly up to 92.4 µM
Inconclusive results are not listed. Activity calls are given as the source filed them. Calls follow the shape of the dose curve; as a rule, active = well fitted cell-killing curve with a large enough effect in the repeat runs; inconclusive = weak or mixed curves, or effect the other way; inactive = flat fitted curve, though single readings scatter.
Permitted responses: y = active, n = inactive

- Compound: "CCC(=O)OCc1ccc(OC)cc1"
  Group label: "n"

Please share the test call associated with "COc1cc(OC)c2ccc(=O)oc2c1" .
n

Returns: the outcome recorded for "CC[C@H]1OC(=O)[C@H](C)[C@@H](O[C@H]2C[C@@](C)(OC)[C@@H](O)[C@H](C)O2)[C@H](C)[C@@H](O[C@@H]2O[C@H](C)C[C@H](N(C)C)[C@H]2O)[C@](C)(O)C[C@@H](C)C(=O)[C@H](C)[C@@H](O)[C@]1(C)O" in this assay.
n

// return assay outcome for "CC(=O)N[C@@H](Cc1ccc(O)cc1)C(=O)O"
n

Please share the test call associated with "CCN(Cc1cccc(S(=O)(=O)O)c1)c1ccc(C(=C2C=CC(=[N+](CC)Cc3cccc(S(=O)(=O)O)c3)C=C2)c2ccccc2S(=O)(=O)[O-])cc1" .
y

Please indicate how the test categorized CCO[Si](C)(CCCOCC1CO1)OCC (stereo unspecified) .
n

Assay outcome for CC(CN(CCN(CC(C)OCCO)CC(C)OCCO)CC(C)OCCO)OCCO (stereo unspecified) : what was it?
n

* * *

# Assay system: Progesterone receptor (Homo sapiens)
# Assay summary: qHTS assay to identify small molecule agonists of the progesterone receptor (PR) signaling pathway (AID 1346784); further: nearly all actives have a fitted effect of over 30% in size
# Condition parameters: PR-UAS-bla HEK293T, beta-lactamase FRET ratio, 16 h; series mostly up to 92.4 µM
Records with an inconclusive call do not appear. Active and inactive are the calls of the source. Calls come from the whole dose curve.
Property label: outcome

Examples with their reported outcome follow.
- Molecule: "CCCCCCCCCCCCCCCCCC(=O)OCC(CC)CCCC (stereo unspecified)"
  outcome: "inactive"
- Molecule: "CCC(CO)(CO)[N+](=O)[O-]"
  outcome: "inactive"
- Molecule: "CCc1ccc(C)cc1"
  outcome: "inactive"
- Molecule: "CC(CO)(CO)C(=O)O"
  outcome: "inactive"
- Molecule: "CC(C)COC(=O)c1ccc(O)cc1"
  outcome: "inactive"

# outcome (molecule: "Nc1c(Cl)cc(Cl)cc1[N+](=O)[O-]" ) is inactive

// sample "CC12CC3CC(C)(C1)CC(N)(C3)C2" , its outcome was inactive

Input "CC(=O)N[C@@H](Cc1ccc(O)cc1)C(=O)O" . Output outcome: inactive

Just so you know, measured outcome for "CCCCOCCOC(=O)c1cccnc1" came out at inactive

Lookup result for "CCOc1ncc(F)c(=O)[nH]1" ; measured outcome: inactive

According to the records, this molecule "O=C1OC[C@H](Cc2cccc(O)c2)[C@H]1Cc1cccc(O)c1" displays outcome of inactive
